Target: Voltage-gated inwardly rectifying potassium channel KCNH2 (Homo sapiens)
Assay: hERG channel inhibition, SAR follow-up, selectivity assay for KCNK9 inhibitor project, FluxOR Tl flux, hERG cells, CRC 2 (AID 540323)
Details: hERG-expressing cells, FluxOR thallium flux fluorescence; at 30 µM (top of the series); test wells contain dofetilide at its IC70
Activity calls are given as the source filed them.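 Rule for the calls: active = peak hERG channel inhibition above 30% at some tested dose, together with a fitted dose response curve; inactive = no hERG inhibition at any dose, or no curve.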
property-name: fluorescence ratio, lower = inhibition

Some solved entries appear below for comparison.
[[record]]
compound = "O=C(Nc1cccc(NC(=O)c2ccc(F)cc2)c1)c1ccccc1"
result = "inactive"

[[record]]
compound = "COc1ccccc1NC(=O)c1cccc(NC(=O)c2ccccc2)c1"
result = "inactive"

[[record]]
compound = "CCOc1ccccc1NC(=O)c1cccc(NC(=O)CC2CCCC2)c1"
result = "inactive"

[[record]]
compound = "CN(C)c1ccc(C(=O)Nc2cccc(NC(=O)c3ccccc3)c2)cc1"
result = "inactive"

[[record]]
compound = "CCOc1ccccc1NC(=O)c1cccc(NC(=O)c2cccc(OC)c2)c1"
result = "inactive"


[ask] Return reported fluorescence ratio, lower = inhibition; argument: Cc1cccc(C(=O)Nc2cccc(NC(=O)c3ccc(C(F)(F)F)cc3)c2)c1
[reply] inactive

[ask] // query fluorescence ratio, lower = inhibition value for entry COc1cccc(C(=O)Nc2cccc(NC(=O)c3ccccc3)c2)c1
[reply] inactive

Origin of values: PubChem BioAssay AID540323
